System: Lung
Assay: AUC (0 to 24 hrs) in Sprague-Dawley rat lung tissue at 10 mg/kg, iv administered as single bolus dose
Format: ADME, organism-based
Parameters: time < 24 hr, dose 10 mg/kg, route intravenous
Conditions: in vivo
result.type: AUC (µg·h/mL)
Give your result in µg·h/mL as a bare value.

Look up AUC: Cc1ccc(CCCO)c(NCc2ccc3nc(NCCCN4CCOCC4)n(Cc4nc(C)ccc4O)c3c2)c1
131

---

Test: Volume of distribution at steady state in Sprague-Dawley rat plasma at 10 mg/kg, iv administered as single bolus dose
Assay type: ADME, organism-based
Set-up: dose 10 mg/kg, route intravenous
Details: read-out: Vdss
result.type: Vd (L/kg)
Give your result in L/kg as a bare value.

Look up Vd: Cc1ccc(CCCO)c(NCc2ccc3nc(NCCCN4CCOCC4)n(Cc4nc(C)ccc4O)c3c2)c1
55

---

Experiment: Drug level in cotton rat epithelial lining fluid at 10 mg/kg, iv administered as single bolus dose measured after 3 hrs
Assay type: ADME, organism-based
Design: dose 10 mg/kg, route intravenous
Details: read-out: Drug uptake
result.type: concentration at 3 h (ng/mL)
Give your result in ng/mL as a bare value.

Look up concentration at 3 h: Cc1ccc(CCCO)c(NCc2ccc3nc(NCCCN4CCOCC4)n(Cc4nc(C)ccc4O)c3c2)c1
392

---

Test: Drug level in Sprague-Dawley rat plasma at 10 mg/kg, iv administered as single bolus dose measured after 3 hrs
Format: ADME, organism-based
Design: dose 10 mg/kg, route intravenous
Conditions: read-out: Drug uptake
result.type: concentration at 3 h (ng/mL)
Give your result in ng/mL as a bare value.

Look up concentration at 3 h: Cc1ccc(CCCO)c(NCc2ccc3nc(NCCCN4CCOCC4)n(Cc4nc(C)ccc4O)c3c2)c1
63

---

Experiment: AUC (0 to 24 hrs) in Sprague-Dawley rat plasma at 10 mg/kg, iv administered as single bolus dose
Format: ADME, organism-based
Design: time < 24 hr, dose 10 mg/kg, route intravenous
result.type: AUC(0-t) at 24 h
Dear colleague, please send the value followed by its unit.

Look up AUC(0-t) at 24 h: Cc1ccc(CCCO)c(NCc2ccc3nc(NCCCN4CCOCC4)n(Cc4nc(C)ccc4O)c3c2)c1
1100 ng·h/mL

---

Assay: AUC (0 to 24 hrs) in Sprague-Dawley rat bronchoalveolar lavage fluid at 10 mg/kg, iv administered as single bolus dose
Type: ADME, organism-based, Lung
Design: time < 24 hr, dose 10 mg/kg, route intravenous
Conditions: in vivo
result.type: AUC (ng·h/mL)
Give your result in ng·h/mL as a bare value.

Look up AUC: Cc1ccc(CCCO)c(NCc2ccc3nc(NCCCN4CCOCC4)n(Cc4nc(C)ccc4O)c3c2)c1
170
